Experiment: HUVEC growth inhibition – cell-based, human, primary screen (AID 575);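 further: 100% = median of untreated cell wells with 0.1% DMSO on each plate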
Conditions: HUVEC proliferation, CellTiter-Glo luminescence, 72 h; at 10 µM; stronger effect = lower value
Each record is given Met if its reported viability is strictly below 90%. Records at or above 90% are given Not met.

These recorded examples may help you get a feel for the data.
query: Report whether reported viability is lower than 90% (strictly) for CCOC(=O)Nc1ccc(NS(=O)(=O)c2ccc(C)cc2)cc1
result: Met

query: Report whether reported viability is lower than 90% (strictly) for OC(CN1CCOCC1)Cn1c(-c2cccc(Cl)c2)nc2ccccc21 (stereo not given)
result: Met

query: Report whether reported viability is lower than 90% (strictly) for COc1ccc(-n2nnnc2SCC(=O)c2ccc(O)c(O)c2)cc1
result: Met

Kindly consider the entry below.
query: Report whether reported viability is lower than 90% (strictly) for N#CC(C(=O)CCN1C(=O)C2CC=CCC2C1=O)c1nc2ccccc2[nH]1 (stereo not given)
result: Not met

* * *

Experiment: SK-BR-3 cell growth inhibitors, pilot screen, 24 h, human (AID 572);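 further: compound exposure lasted between 18 and 24 h rather than exactly 24 h; 100% = carrier-treated control wells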
Conditions: SK-BR-3 viability, CellTiter-Glo luminescence, at 10 µM, stronger effect = lower value
# maps each entry to its viability
Output spec: scalar in %, unitless text.

query: Request the reported viability associated with COc1ccc2cc3cc(C(=O)NCC4CCCO4)oc3nc2c1 (stereo not drawn)
result: 128

***
query: Request the reported viability associated with CCN(CC)CCN1C(=O)C(=O)/C(=C(/O)c2ccc(OC(C)C)cc2)C1c1ccncc1 (stereo not drawn)
result: 133

* * *

Experiment: growth inhibitors of H69AR lung tumor, primary screen, human, duplicate replicates (AID 580);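 further: 100% = mean luminescence of untreated wells and 0% = no signal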
Conditions: H69AR lung tumor cells viability, ATP luminescence, 72 h; at 10 µM
Active and inactive are the calls of the source.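 How the source made its calls: active means viability at or under a set limit in both replicates, limit being median viability minus 3 SD (cut at about 48% in these data, passing the limit was not always enough); inconclusive means at or under the limit in just one replicate; inactive means at or above the limit in both replicates.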
Allowed answers: T = active, F = inactive

These recorded examples may help you get a feel for the data.
query: State the result this test recorded for O=C(NCCC1=CCCCC1)C1CCN(S(=O)(=O)c2cnc[nH]2)CC1 .
result: F

query: State the result this test recorded for CN=c1sc2ccccc2n1CC(O)COCc1ccco1 (stereo unspecified) .
result: F

query: State the result this test recorded for COc1ccccc1NC(=O)CSc1nnc(Cn2nnc(-c3ccccc3)n2)n1-c1ccccc1 .
result: F

***
query: State the result this test recorded for Cc1ccc(-n2ncc3c(=O)n(CC(=O)N4CCCc5ccccc54)cnc32)cc1C .
result: F

query: State the result this test recorded for Cc1nccn1CCCN1C(=O)OC2(CCCCC2)C1(C)O (stereo unspecified) .
result: F

query: State the result this test recorded for CCN(CC)S(=O)(=O)c1ccc2[nH]cc(C(=O)NCCC3=CCCCC3)c(=O)c2c1 .
result: T

query: State the result this test recorded for CC(=O)Nc1ccc(NC(=O)Cn2cc3c(n2)CCC(C)C3)cc1 (stereo unspecified) .
result: F

query: State the result this test recorded for CC1CC(=O)c2cnc(NCC3CCCO3)nc2C1 (stereo unspecified) .
result: F

query: State the result this test recorded for COCC(=O)N(Cc1ccccc1)c1ccccn1 .
result: F

* * *

Assay: reversal of MRP1-mediated doxorubicin resistance, pilot screen, H69AR cells, doxorubicin co-treatment (AID 601)
Conditions: H69AR cells + 2 uM doxorubicin, CellTiter-Glo, 72 h; at 10 µM; stronger effect = higher value
# maps each entry to its differential viability (reversal)
Output spec: scalar in %, unitless text.

Some entries whose results are on file:
query: Request the reported differential viability (reversal) associated with CC(=O)Nc1ccccc1O
result: 0.37

query: Request the reported differential viability (reversal) associated with Cc1cccc(C(=O)O)c1NC(=O)c1ccc(F)cc1
result: 3.75

query: Request the reported differential viability (reversal) associated with CC1(C)CC(=O)C(CC(=O)NC(=O)NCc2ccccc2)=C(O)C1
result: 9.89

***
query: Request the reported differential viability (reversal) associated with CCCS(=O)(=O)C(=C1Nc2ccccc2N1)S(=O)(=O)CCC
result: 12.9

query: Request the reported differential viability (reversal) associated with Cn1c(=O)c2c(nc(NCC3CCCO3)n2C)n(C)c1=O (stereo not drawn)
result: 7.24

query: Request the reported differential viability (reversal) associated with O=C(CSc1ccc(-c2ccccc2)nn1)N1CCOCC1
result: 13.2

query: Request the reported differential viability (reversal) associated with Cc1c(NC(=O)c2cnn3c2NC(c2ccco2)CC3C(F)(F)F)c(=O)n(-c2ccccc2)n1C (stereo not drawn)
result: 15.8

query: Request the reported differential viability (reversal) associated with CC1(C)NC(=O)N(CCCOc2ccc(Br)cc2Cl)C1=O
result: 15.5

query: Request the reported differential viability (reversal) associated with Cc1[nH]nc2c1C1(CCN(C(=O)c3ccccc3)CC1)C(C#N)=C(N)O2
result: 3.04

query: Request the reported differential viability (reversal) associated with CCC(C(=O)OCCN(CC)CC)c1ccccc1 (stereo not drawn)
result: -0.8

query: Request the reported differential viability (reversal) associated with CCOC(=O)c1c(C)oc2c1c(C(c1ccncc1)N1CCOCC1)c(O)c1ccccc12 (stereo not drawn)
result: -5.27

query: Request the reported differential viability (reversal) associated with CCOC(=O)c1[nH]c(C)c(C(=O)Nc2ccccc2F)c1C
result: -51

query: Request the reported differential viability (reversal) associated with Nc1nc2ccccc2n1/N=C/c1ccc(Br)cc1
result: 4.02

query: Request the reported differential viability (reversal) associated with CCOC(=O)c1ccccc1NC1CC(=O)N(c2ccccc2C)C1=O (stereo not drawn)
result: 8.82

query: Request the reported differential viability (reversal) associated with COc1ccc(CNc2nc3nc(C)c(Cl)c(C)n3n2)cc1OC
result: 3.22

query: Request the reported differential viability (reversal) associated with CN(c1ccc(OCc2nnc(-c3ccccc3)o2)cc1)S(=O)(=O)c1ccccc1
result: 2.42

query: Request the reported differential viability (reversal) associated with Cc1ccc(S(=O)(=O)C2(C(=O)N3CCCCCC3)CC2)cc1
result: 1.4

query: Request the reported differential viability (reversal) associated with Nc1nc(-c2ccc(Br)s2)c(Br)s1
result: 9.83

* * *

Assay: growth suppression of yeast trafficking mutant, preliminary HTS, modulators of trafficking downstream of Golgi apparatus project, 1536-format plate, OD 615 nm (AID 637)
Conditions: yeast transport mutant growth, absorbance 615 nm, 18 h; stronger effect = higher value
# maps each entry to its inhibition
Output spec: scalar in %, unitless text.

Some entries whose results are on file:
query: Request the reported inhibition associated with CCCn1c(SCC(=O)NC(=O)NCc2ccco2)n[nH]c1=O
result: -3.64

query: Request the reported inhibition associated with COc1ccc(OC)c(CNC(=O)CCN2C(=O)COc3ccccc32)c1
result: -2.06

query: Request the reported inhibition associated with CN1CCN(C2=Nc3cc(Cl)ccc3Nc3ccccc32)CC1
result: 3.67

query: Request the reported inhibition associated with COc1ccccc1-c1nc(C(F)(F)F)c(OC)o1
result: 17.9

query: Request the reported inhibition associated with CCOc1ccccc1CN(Cc1ccco1)S(=O)(=O)c1ccc(-n2cnnn2)c(OC)c1
result: -2.06

***
query: Request the reported inhibition associated with O=C(COC(=O)CCC1CCCC1)Nc1ccc(Cl)cn1
result: -1.45

query: Request the reported inhibition associated with COCCn1nnnc1C(c1ccccc1OC)N1CCc2ccccc2C1 (configuration not stated)
result: -6.36

query: Request the reported inhibition associated with CCCCC[C@H](O)/C=C/[C@@H]1[C@@H](CCCCCCC(=O)O)[C@@H](O)C[C@H]1O
result: 2.33

query: Request the reported inhibition associated with NC(=O)c1cc(-c2ccccc2)nc(N2CCOCC2)n1
result: -6.35

query: Request the reported inhibition associated with Cn1c(=O)[nH]c(=O)c2c1nc(CN1CCN(c3cccc(Cl)c3)CC1)n2CCc1ccccc1
result: -6.98

query: Request the reported inhibition associated with O=C(O)c1ccc(COc2ccc(Cl)cc2)o1
result: -2.13

query: Request the reported inhibition associated with Cc1onc(-c2c(F)cccc2Cl)c1C(=O)Nc1nc2c(s1)CCCC2
result: -1.09

* * *

Experiment: reversal of MRP1-mediated doxorubicin resistance, pilot screen, H69AR cells, doxorubicin co-treatment (AID 601)
Details: H69AR cells + 2 uM doxorubicin, CellTiter-Glo, 72 h; measured here: viability with 2 uM doxorubicin; at 10 µM; stronger effect = lower value
recorded metric: viability (%)
Output spec: scalar in %, unitless text.

Some entries whose results are on file:
query: Request the reported viability associated with CCCC(=O)Nc1ccc(NC(=O)c2cccs2)cn1
result: 82.3

query: Request the reported viability associated with CC(=O)c1cccc(NC(=O)NCc2ccccn2)c1
result: 91.5

***
query: Request the reported viability associated with CCCCCC#CCC#CCC#CCC#CCCCC(=O)O
result: 93.9

query: Request the reported viability associated with Cc1cc(=O)[nH]c2c1cnn2Cc1ccccc1
result: 93.9

query: Request the reported viability associated with CCOC(=O)NC(=O)CSc1nnc(C)s1
result: 96.5

query: Request the reported viability associated with Cc1onc(-c2ccccc2)c1C(=O)N1CCN(C(=O)c2ccco2)CC1
result: 90.5

query: Request the reported viability associated with O=C1CCCN1Cc1ncnn1-c1ccccc1
result: 97.1

query: Request the reported viability associated with CCOc1ccc2c(c1)n(CO)c(=S)n2CO
result: 87.5

query: Request the reported viability associated with COc1cccc(NC(=O)CC2SC(=Nc3ccccc3)NC2=O)c1 (stereo not drawn)
result: 98.9

query: Request the reported viability associated with CCn1c(SCC(=O)c2ccc(Cl)cc2)nnc1-c1ccoc1C
result: 89.6

query: Request the reported viability associated with C=CCOC(=O)CC(NC(=O)c1ccccc1)c1ccccc1 (stereo not drawn)
result: 85.3

query: Request the reported viability associated with O=C1CN(c2ccccc2F)C(=O)CN1c1ccccc1F
result: 92.2

query: Request the reported viability associated with O=C(CN(C1CCCCC1)S(=O)(=O)c1ccccc1)NCc1cccnc1
result: 92.6

query: Request the reported viability associated with Cc1nc2ccccc2nc1OCC(=O)Nc1cc(C(F)(F)F)ccc1N1CCOCC1
result: 101

query: Request the reported viability associated with ON=C1/C(=N\O)CC2(C/C1=N/O)OCCO2
result: 87.7

query: Request the reported viability associated with CCN(CC)C(=O)C1CCC(CNS(=O)(=O)c2cccc3cccnc23)CC1 (stereo not drawn)
result: 97.1

query: Request the reported viability associated with CC(=O)Nc1c(C(=O)O)[nH]c2ccccc12
result: 101

query: Request the reported viability associated with COc1ccccc1-c1noc(-c2ccco2)n1
result: 93.5
